- STUDY_SYSTEM: MKNK1 (Homo sapiens, UniProt Q9BUB5, T385D)
- Construct: GST (N); purchased Carna Biosciences 02-145; host or cells: insect cells (baculovirus expression system)
- Sequence (Q9BUB5 1-424 isoform Q9BUB5-2 T344D): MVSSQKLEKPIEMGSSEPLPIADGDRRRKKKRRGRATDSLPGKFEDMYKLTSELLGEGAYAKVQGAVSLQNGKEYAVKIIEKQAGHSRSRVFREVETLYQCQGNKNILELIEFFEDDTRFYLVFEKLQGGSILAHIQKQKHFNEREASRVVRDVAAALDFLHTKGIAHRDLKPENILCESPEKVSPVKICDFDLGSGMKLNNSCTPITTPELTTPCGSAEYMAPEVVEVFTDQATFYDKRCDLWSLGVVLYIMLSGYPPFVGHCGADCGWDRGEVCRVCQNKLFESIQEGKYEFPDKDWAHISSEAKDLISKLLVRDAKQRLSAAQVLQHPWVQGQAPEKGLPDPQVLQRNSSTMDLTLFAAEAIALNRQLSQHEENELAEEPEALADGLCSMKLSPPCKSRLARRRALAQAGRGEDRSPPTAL
- TEST_SUMMARY: MKNK1 kinase assay (TR-FRET)
- Format: biochemical
- CONDITION_SET: ATP final conc. 10 µM; 15 min pre-incubation; reaction time 45 min at 22°C
RECORDED_ENDPOINT: pIC50
Answer as the number alone; pIC50 is minus log10 of concentration in mol/L.

GET /value?item= COc1ccc2oc(-c3cnc4ccc(OCCN)nn34)cc2c1 &field=pIC50 returns 8.22

GET /value?item= N[C@H](COc1ccc2ncc(-c3cc4ccccc4o3)n2n1)c1ccc(Cl)cc1 &field=pIC50 returns 7.51

Entry under test: COc1ccc2oc(-c3cnc4ccc(OCCCN)nn34)cc2c1 . Its pIC50 was 8.15

Given item N[C@H]1C[C@H](COc2ccc3ncc(-c4cc5ccccc5o4)n3n2)C1 , the value recorded as its pIC50 is 8.22

Lab note: measured pIC50 of NCC(CN)Oc1ccc2ncc(-c3cc4ccccc4o3)n2n1 was 7.41

The molecule identified as COc1cccc2oc(-c3cnc4ccc(OCCN)nn34)cc12 registered its pIC50 at 8.22

According to the records, this molecule NCC(COc1ccc2ncc(-c3cc4ccccc4o3)n2n1)c1ccccc1 (stereo not drawn) displays pIC50 of 7.77

// N[C@H]1C[C@H](Oc2ccc3ncc(-c4cc5cc(Cl)ccc5o4)n3n2)C1 : pIC50 value = 8.40

pIC50 for Cc1ccc2oc(-c3cnc4ccc(O[C@H](C)CN)nn34)cc2c1 is 7.06
